Data origin: patent US20260242478A1

experimental-system: T1, PSMA Fab (biotinylated (site not stated))
T1 construct: Biotinylated PSMA Fab captured on neutravidin plates in the phage ELISA; also called Anti-PSMA Fab; 006 PSMA Fab
measurement-protocol: clonal phage ELISA; biotinylated PSMA Fab on neutravidin plate; anti-M13 HRP detection; blocking buffer alone
Where no end group is shown, it is not given here.
readout: Phage binding ELISA signal, Anti-PSMA Fab
Give the figure by itself; no unit, no explanation.

Quickly give me recorded Phage binding ELISA signal, Anti-PSMA Fab for EEPWCIPSWMCALT (cysteine pairing not given here; also: displayed as fusion to phage pIII) [Phage-2449]
1.29

Return value of Phage binding ELISA signal, Anti-PSMA Fab for input GAIWCIPQWMCAWN (cysteine pairing not given here; also: displayed as fusion to phage pIII) [Phage-2443] , no commentary.
1.3

Please list Phage binding ELISA signal, Anti-PSMA Fab recorded for the binder VVKWCTPPWMCSVW [Phage-2450]
1.29
